tested system: T1, Ep-CAM (UniProt P16422 24-265, limits assumed)
T1 construct: Antigen of the Biacore analysis of ING-1 variants
T1 sequence (looked up): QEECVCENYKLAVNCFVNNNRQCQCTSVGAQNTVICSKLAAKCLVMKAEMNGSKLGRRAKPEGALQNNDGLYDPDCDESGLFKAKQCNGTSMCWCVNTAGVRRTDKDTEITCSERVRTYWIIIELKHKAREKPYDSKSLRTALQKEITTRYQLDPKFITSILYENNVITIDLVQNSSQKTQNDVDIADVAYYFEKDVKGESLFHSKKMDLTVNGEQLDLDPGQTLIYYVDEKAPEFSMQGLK
experiment description: Biacore, Fab periplasmic extract
Entries and their fold difference in affinity vs original values follow.
Note: unit fold is implicit; provide only the numeric part.

Consider the reported fold difference in affinity vs original for these binders:
>  <binder>
ING-1 heavy chain T55H (Fab, V domains shown) VH: QIQLVQSGPELKKPGETVKISCKASGYTFTKYGMNWVKQAPGKGLKWMGWINTYHEEPTYGDDFKGRFAFSLETSASTANLQINNLKSEDTATYFCARFGSAVDYWGQGTSVTVSS VL: DIVMTQAAFSNPVTLGTSGSISCRSSKSLLHSNGITYLYWYLQKPGQSPQLLIYQMSNLASGVPDRFSSSGSGTDFTLRISRVEAEDVGVYYCAQNLELPRTFGGGTKLEMKR

>  <unit spec>
fold

>  <fold difference in affinity vs original>
0.05

$$$$
>  <binder>
ING-1 heavy chain Y32E (Fab, V domains shown) VH: QIQLVQSGPELKKPGETVKISCKASGYTFTKEGMNWVKQAPGKGLKWMGWINTYTEEPTYGDDFKGRFAFSLETSASTANLQINNLKSEDTATYFCARFGSAVDYWGQGTSVTVSS VL: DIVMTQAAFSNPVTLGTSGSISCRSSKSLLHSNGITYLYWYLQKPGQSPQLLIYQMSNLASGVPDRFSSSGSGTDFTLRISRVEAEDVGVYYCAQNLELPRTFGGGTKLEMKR

>  <unit spec>
fold

>  <fold difference in affinity vs original>
0.08

$$$$
>  <binder>
ING-1 heavy chain W50K (Fab, V domains shown) VH: QIQLVQSGPELKKPGETVKISCKASGYTFTKYGMNWVKQAPGKGLKWMGKINTYTEEPTYGDDFKGRFAFSLETSASTANLQINNLKSEDTATYFCARFGSAVDYWGQGTSVTVSS VL: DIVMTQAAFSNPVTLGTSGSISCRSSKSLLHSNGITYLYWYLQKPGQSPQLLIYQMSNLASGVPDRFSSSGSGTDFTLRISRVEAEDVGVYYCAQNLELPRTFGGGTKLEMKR

>  <unit spec>
fold

>  <fold difference in affinity vs original>
0.04

$$$$
>  <binder>
ING-1 heavy chain G33H (Fab, V domains shown) VH: QIQLVQSGPELKKPGETVKISCKASGYTFTKYHMNWVKQAPGKGLKWMGWINTYTEEPTYGDDFKGRFAFSLETSASTANLQINNLKSEDTATYFCARFGSAVDYWGQGTSVTVSS VL: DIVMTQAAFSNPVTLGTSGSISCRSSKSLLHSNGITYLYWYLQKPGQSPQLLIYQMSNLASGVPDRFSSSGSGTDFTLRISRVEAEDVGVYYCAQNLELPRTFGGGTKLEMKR

>  <unit spec>
fold

>  <fold difference in affinity vs original>
0.02

$$$$

Note: attention shifts to another entry.
Asked: Note down fold difference in affinity vs original recorded for ING-1 heavy chain Y54E (Fab, V domains shown) VH: QIQLVQSGPELKKPGETVKISCKASGYTFTKYGMNWVKQAPGKGLKWMGWINTETEEPTYGDDFKGRFAFSLETSASTANLQINNLKSEDTATYFCARFGSAVDYWGQGTSVTVSS VL: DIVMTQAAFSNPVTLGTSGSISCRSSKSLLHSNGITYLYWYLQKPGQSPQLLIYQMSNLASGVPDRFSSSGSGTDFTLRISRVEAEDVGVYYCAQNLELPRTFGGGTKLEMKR
Given back: 0.07

Reference for the values: patent US20110118131A1
